molecular target: ER (Homo sapiens (Human)); test: In-cell western (ICW) ER degradation assay in MCF-7 cells; type: cell-based; conditions: MCF7, maximal ER degradation, MCF7, 16 hrs
Catalogue of Dmax readings, one per entry.

Examples with answers:
For O=C1CC[C@H](N2Cc3c(ccc4c3OC[C@H]3CN(C[C@@H]5COC6(CCN(c7ccc([C@@H]8c9ccc(O)cc9OC[C@@H]8c8ccccc8)cc7F)CC6)C5)CCN43)C2=O)C(=O)N1 (single isomer, unassigned) [Compound A157] , what is its reported Dmax?
50 to 75%

For COc1cc(N2CCC3(CC2)CC(CN2CCN4c5ccc6c(c5OC[C@@H]4C2)CN([C@@H]2CCC(=O)NC2=O)C6=O)C3)c(F)cc1[C@H]1c2ccc(O)cc2OC[C@H]1c1ccccc1 [Compound A126] , what is its reported Dmax?
25 to 50%

For O=C1CC[C@H](NC(=O)c2ccc3c(n2)OC[C@H]2CN(C[C@H]4COC5(CCN(c6ccc([C@@H]7c8ccc(O)cc8OC[C@@H]7c7ccccc7)cc6)CC5)C4)CCN32)C(=O)N1 [Compound A147] , what is its reported Dmax?
50 to 75%

For O=C1CC[C@@H](NC(=O)c2ccc(N3CCC(CN4CC5(CCN(c6ccc([C@H]7c8ccc(O)cc8OC[C@H]7c7ccccc7)cc6)CC5)C4)CC3)cn2)C(=O)N1 (single isomer, unassigned) [Compound A111] , what is its reported Dmax?
50 to 75%

For O=C1CC[C@@H](N2Cc3cc4c(cc3C2=O)OC[C@H]2CN(CC3COC5(CCN(c6ccc(C7c8ccc(O)cc8OCC7c7ccccc7)cc6)CC5)C3)CCN42)C(=O)N1 (stereo in doubt) [Compound A139] , what is its reported Dmax?
50 to 75%

For O=C1CC[C@@H](N2Cc3c(ccc4c3OCC43CCN(CC4CC5(CCN(c6ccc([C@H]7c8ccc(O)cc8OC[C@H]7c7ccccc7)cc6)CC5)C4)CC3)C2=O)C(=O)N1 [Compound A143] , what is its reported Dmax?
25 to 50%

Now take the following compound into account.
For O=C1CC[C@@H](NC(=O)c2ccc(N3CCN(CC4COC5(CCN(c6ccc([C@H]7c8ccc(O)cc8OC[C@H]7c7ccccc7)cc6)CC5)C4)CC3)cn2)C(=O)N1 (single isomer, unassigned) [Compound A145] , what is its reported Dmax?
50 to 75%

---

Catalogue of IC50 readings, one per entry.
Target: CRBN/DDB1 (Homo sapiens (Human))
Experiment: HTRF binding assay to CRBN/DDB1
Conditions: read-out: CRBN HTRF IC50
Experimental: The binding potency was determined using HTRF assay technology (Perkin Elmer). Compounds were serially diluted in DMSO and 0.2 μL volume was transferred to white 384-well plate.

Quick check: IC50 on CRBN/DDB1 (Homo sapiens (Human)), item O=C1CCC(N2Cc3c(ccc4c3OC[C@H]3CN(CC5CCN(c6ncc([C@@H]7c8ccc(O)cc8OC[C@@H]7c7ccccc7)cn6)CC5)CCN43)C2=O)C(=O)N1 (single isomer, unassigned) ?
50 to 500 nM

---

molecular target: ER (Homo sapiens (Human), UniProt P03372); assay: In-cell western (ICW) ER degradation assay in T47D cells; assay type: cell-based; conditions: maximal ER degradation, 16 hrs
Sequence (P03372 whole entry): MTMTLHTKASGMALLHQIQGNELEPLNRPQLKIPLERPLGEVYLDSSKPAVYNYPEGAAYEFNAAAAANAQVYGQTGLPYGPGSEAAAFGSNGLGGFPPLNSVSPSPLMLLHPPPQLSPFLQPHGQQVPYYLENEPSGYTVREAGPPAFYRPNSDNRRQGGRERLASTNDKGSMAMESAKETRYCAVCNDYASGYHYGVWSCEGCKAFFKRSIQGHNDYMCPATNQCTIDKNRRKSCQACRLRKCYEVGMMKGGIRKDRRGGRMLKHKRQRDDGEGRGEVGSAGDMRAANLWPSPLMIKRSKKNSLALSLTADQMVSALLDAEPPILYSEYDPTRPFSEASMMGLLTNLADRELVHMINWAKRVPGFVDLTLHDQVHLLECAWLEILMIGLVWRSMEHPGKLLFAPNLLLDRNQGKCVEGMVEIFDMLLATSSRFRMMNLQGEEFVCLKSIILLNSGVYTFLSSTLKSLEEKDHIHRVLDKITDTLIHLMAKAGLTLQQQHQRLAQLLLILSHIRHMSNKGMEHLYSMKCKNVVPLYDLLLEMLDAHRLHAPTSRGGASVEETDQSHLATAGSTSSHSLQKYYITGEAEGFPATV
Catalogue of Dmax readings, one per entry.

Quick check: Dmax on ER (Homo sapiens (Human), UniProt P03372), item O=C1CC[C@@H](N2Cc3cc4c(cc3C2=O)OC[C@H]2CN(CC3COC5(CCN(c6ccc([C@H]7c8ccc(O)cc8OC[C@H]7c7ccccc7)cc6)CC5)C3)CCN42)C(=O)N1 (stereo partly drawn) ?
50 to 75%

Others:
Quick check: Dmax on ER (Homo sapiens (Human), UniProt P03372), item `O=C1CC[C@@H](N2Cc3cc4c(cc3C2=O)OC[C@H]2CN(CC3CCC5(CC3)CN(c3ccc([C@@H]6c7ccc(O)cc7OC[C@@H]6c6ccccc6)cc3)C5)CCN42)C(=O)N1` ?
50 to 75%

Quick check: Dmax on ER (Homo sapiens (Human), UniProt P03372), item O=C1CCC(N2C(=O)c3cc4c(cc3C2=O)CN(C(=O)C2CCN(C3CCN(c5ccc([C@H]6c7ccc(O)cc7OC[C@H]6c6ccccc6)cc5)CC3)CC2)C4)C(=O)N1 (single isomer, unassigned) ?
25 to 50%

Quick check: Dmax on ER (Homo sapiens (Human), UniProt P03372), item `O=C1CC[C@@H](N2Cc3cc4c(cc3C2=O)OC[C@H]2CN(CC3CC5(CCN(c6ccc([C@@H]7c8ccc(O)cc8OC[C@@H]7c7ccccc7)cc6)CC5)C3)CCN42)C(=O)N1` ?
50 to 75%

Quick check: Dmax on ER (Homo sapiens (Human), UniProt P03372), item O=C1CC[C@@H](N2Cc3cc4c(cc3C2=O)OC[C@H]2CN(CC3CCC5(CC3)CN(c3ccc([C@H]6c7ccc(O)cc7OC[C@H]6c6ccccc6)cc3)C5)CCN42)C(=O)N1 (single isomer, unassigned) ?
≥ 75%

---

target: ER (Homo sapiens (Human), UniProt P03372); assay: In-cell western (ICW) ER degradation assay in MCF-7 cells; format: cell-based; conditions: ER degradation, MCF7, 16 hrs
assay-endpoint: DC50

For COc1cc(N2CCC3(CC2)CC(CN2CCC4(CC2)COc2c4ccc4c2CN(C2CCC(=O)NC2=O)C4=O)C3)c(F)cc1[C@H]1c2ccc(O)cc2OC[C@H]1c1ccccc1 (stereo partly drawn) [Compound A130] , what is its reported DC50?
< 1 nM

For O=C1CCC(N2Cc3c(ccc4c3OC[C@@H]3CN(CC5CCN(c6ccc([C@@H]7c8ccc(O)cc8OC[C@@H]7c7ccccc7)cc6)CC5)CCN43)C2=O)C(=O)N1 (single isomer, unassigned) , what is its reported DC50?
1 to 10 nM

For O=C1CC[C@@H](N2Cc3cc4c(cc3C2=O)OC[C@H]2CN(CC3CCC5(CC3)CN(c3ccc([C@H]6c7ccc(O)cc7OC[C@H]6c6ccccc6)cc3)C5)CCN42)C(=O)N1 (single isomer, unassigned) , what is its reported DC50?
1 to 10 nM

For COc1cc(N2CCC(CN3CCC4(CC3)COc3c4ccc4c3CN(C3CCC(=O)NC3=O)C4=O)CC2)ccc1[C@H]1c2ccc(O)cc2OC[C@H]1c1ccccc1 (stereo partly drawn) , what is its reported DC50?
< 1 nM

For O=C1CCC(NC(=O)c2ccc3c(n2)OC[C@H]2CN(CC4CCN(c5ccc([C@@H]6c7ccc(O)cc7OC[C@@H]6c6ccccc6)cc5F)CC4)CCN32)C(=O)N1 (single isomer, unassigned) , what is its reported DC50?
1 to 10 nM

Others:
For O=C1CCC(N2Cc3cc(N4CCN(CC5CC6(CCN(c7ccc([C@@H]8c9ccc(O)cc9OC[C@@H]8c8ccccc8)cn7)CC6)C5)CC4)ccc3C2=O)C(=O)N1 (single isomer, unassigned) [Compound A68] , what is its reported DC50?
1 to 10 nM

For O=C1CCC(N2C(=O)c3cc4c(cc3C2=O)CN(CC(=O)N2CCC3(CC2)CCN(c2ccc([C@@H]5c6ccc(O)cc6OC[C@@H]5c5ccccc5)cc2)CC3)C4)C(=O)N1 (single isomer, unassigned) , what is its reported DC50?
1 to 10 nM

For O=C1CCC(N2C(=O)c3cc4c(cc3C2=O)CN(C(=O)CN2CCC3(CC2)CN(c2ccc([C@@H]5c6ccc(O)cc6OC[C@@H]5c5ccccc5)cc2)C3)C4)C(=O)N1 (stereo partly drawn) , what is its reported DC50?
10 to 100 nM

---

target: CRBN/DDB1 (Homo sapiens (Human), UniProt Q96SW2); experiment: HTRF binding assay to CRBN/DDB1; conditions: read-out: CRBN HTRF IC50
Sequence (Q96SW2 whole entry): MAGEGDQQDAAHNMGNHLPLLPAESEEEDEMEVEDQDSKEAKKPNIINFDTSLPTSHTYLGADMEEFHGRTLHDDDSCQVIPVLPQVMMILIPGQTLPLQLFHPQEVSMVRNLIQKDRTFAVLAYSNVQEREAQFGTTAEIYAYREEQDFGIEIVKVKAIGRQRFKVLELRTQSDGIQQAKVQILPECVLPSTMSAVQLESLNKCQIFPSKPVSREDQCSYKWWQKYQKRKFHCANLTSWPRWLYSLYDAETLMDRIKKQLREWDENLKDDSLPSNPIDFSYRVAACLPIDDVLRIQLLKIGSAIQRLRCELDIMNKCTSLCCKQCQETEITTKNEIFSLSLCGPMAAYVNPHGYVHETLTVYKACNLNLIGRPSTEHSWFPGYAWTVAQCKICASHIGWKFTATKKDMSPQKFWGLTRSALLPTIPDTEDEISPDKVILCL
Sequence (Q16531 whole entry partner): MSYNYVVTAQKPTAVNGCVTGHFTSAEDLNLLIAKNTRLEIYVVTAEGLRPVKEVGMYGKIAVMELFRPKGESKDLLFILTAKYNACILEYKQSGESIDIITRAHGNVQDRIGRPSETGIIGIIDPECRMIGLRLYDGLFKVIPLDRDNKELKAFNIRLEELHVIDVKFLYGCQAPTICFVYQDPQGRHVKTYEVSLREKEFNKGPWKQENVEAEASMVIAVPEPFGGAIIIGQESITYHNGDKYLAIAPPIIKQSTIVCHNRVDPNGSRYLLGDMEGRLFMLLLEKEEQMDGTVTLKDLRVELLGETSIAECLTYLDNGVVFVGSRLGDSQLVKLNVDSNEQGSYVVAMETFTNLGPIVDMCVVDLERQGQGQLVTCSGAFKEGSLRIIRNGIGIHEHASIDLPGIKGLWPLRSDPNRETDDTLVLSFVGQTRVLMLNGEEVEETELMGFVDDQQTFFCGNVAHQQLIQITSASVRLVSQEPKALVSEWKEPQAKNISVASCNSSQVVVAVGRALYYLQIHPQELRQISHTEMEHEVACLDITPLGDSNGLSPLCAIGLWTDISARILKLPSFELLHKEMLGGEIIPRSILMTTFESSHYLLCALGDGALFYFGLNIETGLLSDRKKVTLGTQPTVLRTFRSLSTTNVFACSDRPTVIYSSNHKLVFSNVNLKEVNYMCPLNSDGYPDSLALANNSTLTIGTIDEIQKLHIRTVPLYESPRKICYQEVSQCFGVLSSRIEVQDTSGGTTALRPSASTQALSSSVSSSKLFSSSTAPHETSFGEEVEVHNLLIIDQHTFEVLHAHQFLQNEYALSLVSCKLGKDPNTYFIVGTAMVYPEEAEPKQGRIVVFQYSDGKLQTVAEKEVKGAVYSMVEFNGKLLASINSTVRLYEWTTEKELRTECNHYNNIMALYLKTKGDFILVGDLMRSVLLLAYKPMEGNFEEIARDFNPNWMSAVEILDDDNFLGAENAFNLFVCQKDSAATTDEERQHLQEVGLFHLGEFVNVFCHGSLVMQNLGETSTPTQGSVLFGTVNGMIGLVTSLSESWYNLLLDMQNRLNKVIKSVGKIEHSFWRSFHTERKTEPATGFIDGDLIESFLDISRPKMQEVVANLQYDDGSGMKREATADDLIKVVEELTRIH
Catalogue of IC50 readings, one per entry.

For `O=C1CC[C@H](NC(=O)c2ccc3c(n2)OC[C@H]2CN(CC4CCC5(CC4)CN(c4ccc([C@@H]6c7ccc(O)cc7OC[C@@H]6c6ccccc6)cc4)C5)CCN32)C(=O)N1` , what is its reported IC50?
500 to 5000 nM

For `O=C1CC[C@@H](N2Cc3c(ccc4c3OCC43CCN(CC4CCC5(CC4)CN(c4ccc([C@H]6c7ccc(O)cc7OC[C@H]6c6ccccc6)cc4)C5)CC3)C2=O)C(=O)N1` , what is its reported IC50?
< 50 nM

Now take the following molecule into account.
For COc1ccc([C@@H]2COc3cc(O)ccc3[C@@H]2c2ccc(N3CCC(CN4CCN5c6ccc7c(c6OC[C@@H]5C4)CN(C4CCC(=O)NC4=O)C7=O)CC3)cc2)cc1 (single isomer, unassigned) , what is its reported IC50?
50 to 500 nM

---

Quick record of IC50 values for ERα_LBD(GST) (Homo sapiens (Human), UniProt P03372).

For O=C1CC[C@@H](N2Cc3c(ccc4c3OC[C@@H]3CN(C[C@@H]5COC6(CCN(c7ccc([C@H]8c9ccc(O)cc9OC[C@H]8c8ccccc8)cc7)CC6)C5)CCN43)C2=O)C(=O)N1 (single isomer, unassigned) [Compound A132] , what is its reported IC50?
< 5 nM

For COc1cc(C(=O)NC2CCC(=O)NC2=O)ncc1N1CCN(CC2CCC3(CC2)CN(c2ccc([C@H]4c5ccc(O)cc5OC[C@H]4c4ccccc4)cc2)C3)CC1 (mixture of isomers) [Compound A117] , what is its reported IC50?
< 5 nM

Now take the following compound into account.
For COc1cc(N2CCC3(CC2)CC(CN2CCN4c5ccc6c(c5OC[C@@H]4C2)CN([C@@H]2CCC(=O)NC2=O)C6=O)C3)c(F)cc1[C@@H]1c2ccc(O)cc2OC[C@@H]1c1ccccc1 (single isomer, unassigned) [Compound A125] , what is its reported IC50?
< 5 nM
